Experiment: Cell viability MTS assay on Hep-2 cells
Settings: human
For each record, write down the corresponding CC50.
One number for each entry, in µM.

# COMPOUND, CC50 (µM)
data = [
    ("O=C(N[C@@H](Cc1ccc(O)cc1)C(=O)O)c1cc(-c2cccc(F)c2)c(=O)n2c1sc1ccc(OC3CCCCC3)cc12 [Compound 16]", 72.9),
]

Now take the following compound into account.
Reported CC50 for CC(C)(CC(=O)O)NC(=O)c1cc(-c2ccccc2)c(=O)n2c1sc1ccc(OC3CCCCC3)cc12 [Compound 1] was 61.3

###

Experiment: Cell viability MTS assay on MRC-5 cells
Assay type: cell-based
Details: human, same conditions as HCoV inhibition assay, read-out: CC50 (µM) (95% CI)
The threshold is 60 µM. Values of CC50 beneath it are tagged MET; values meeting or exceeding it are tagged NOT MET.

# SMILES, ANSWER_LABEL
records = [
    ("O=C(N[C@@H](Cc1ccc(O)cc1)C(=O)O)c1cc(-c2ccc(F)cc2)c(=O)n2c1sc1ccc(OC3CCCCC3)cc12", "NOT MET"),
    ("O=C(N[C@@H](Cc1ccc(O)cc1)C(=O)O)c1cc(-c2cccc(F)c2)c(=O)n2c1sc1ccc(OC3CCCCC3)cc12", "NOT MET"),
    ("O=C(N[C@@H](Cc1ccc(O)cc1)C(=O)O)c1cc(-c2ccc(Cl)cc2)c(=O)n2c1sc1ccc(OC3CCCCC3)cc12", "MET"),
    ("COc1ccc(-c2cc(C(=O)N[C@@H](Cc3ccc(O)cc3)C(=O)O)c3sc4ccc(OC5CCCCC5)cc4n3c2=O)cc1F", "NOT MET"),
    ("NS(=O)(=O)c1ccc(OC(=O)c2cc(-c3ccccc3)c(=O)n3c2sc2ccc(OC4CCCCC4)cc23)cc1", "MET"),
]

Just wondering, is CC50 of O=C(N[C@@H](Cc1ccc(O)cc1)C(=O)O)c1cc(-c2cccs2)c(=O)n2c1sc1ccc(OC3CCCCC3)cc12 below 60 µM?
MET

Just wondering, is CC50 of O=C(N[C@@H](Cc1ccc(O)cc1)C(=O)O)c1ccc(=O)n2c1sc1ccc(OC3CCCCC3)cc12 below 60 µM?
NOT MET

Just wondering, is CC50 of O=C(O)CCNC(=O)c1cc(-c2ccccc2)c(=O)n2c1sc1ccc(OC3CCCCC3)cc12 below 60 µM?
NOT MET
